The values you see were collected from ChEMBL document CHEMBL4219150.

System: Mycobacterium tuberculosis
Assay: Inhibition of Mycobacterium tuberculosis IMPDH deltaCBS mutant assessed as reduction in NADH production using IMP as substrate at 10 uM preincubated for 5 mins followed by substrate addition measured for 32 mins in presence of NAD+
Listed compounds paired with reported inhibition
READOUT_KIND: inhibition (%)

- CC(Oc1ccc(-c2cn(C)cn2)cc1)C(=O)Nc1ccccc1 (stereo not given): 4
- C[C@H](Oc1ccc(-c2cn(C)cn2)cc1)C(=O)Nc1nc(-c2ccc(Br)cc2)c[nH]1: 99
- CC(Oc1ccc(-c2cn(C)cn2)cc1)C(=O)Nc1nc(-c2ccc(I)cc2)c[nH]1 (stereo not given): 96
- CC(Oc1ccc(-c2cn(C)cn2)cc1)C(=O)Nc1nc(-c2ccc(Br)cc2)co1 (stereo not given): 83
- CC(Oc1ccc(-c2cn(C)cn2)cc1)C(=O)Nc1nc(-c2ccc(N3CCOCC3)cc2)c[nH]1 (stereo not given): 94
- COc1ccc(-c2c[nH]c(NC(=O)C(C)Oc3ccc(-c4cn(C)cn4)cc3)n2)cc1 (stereo not given): 95
- CC(Oc1ccc(-c2cn(C)cn2)cc1)C(=O)Nc1nc(-c2ccc(Br)cc2)c[nH]1 (stereo not given): 99
- CC(Oc1ccc(-c2cn(C)cn2)cc1)C(=O)Nc1ccc(I)cc1 (stereo not given): 97
- COc1ccc(OC(C)C(=O)Nc2ccc(I)cc2)cc1 (stereo not given): 92
- CC(Oc1ccc(-c2cn(C)cn2)cc1)C(=O)Nc1nc(-c2ccccc2)c[nH]1 (stereo not given): 77

---

Listed molecules paired with reported inhibition
Tested on: Mycobacterium tuberculosis
Assay: Inhibition of Mycobacterium tuberculosis IMPDH deltaCBS mutant assessed as reduction in NADH production at 1 mM using IMP as substrate preincubated for 5 mins followed by substrate addition measured for 32 mins in presence of NAD+
READOUT_KIND: inhibition (%)

• Oc1ccc2ccc(O)cc2c1 = 77
• O=C(O)c1cc2sccc2s1 = 86
• Oc1cccc2ccccc12 = 68
• Oc1ccc2ccccc2c1 = 57
• N#Cc1c[nH]c2ccccc12 = 51
• Nc1ccc(-n2ccnc2)cc1 = 64
• Clc1ccc(-c2cnc[nH]2)cc1 = 59
• O=C(O)c1cc2cccc(O)c2cc1O = 98
• OCc1ccc2sccc2c1 = 53
• Brc1ccc(-c2c[nH]cn2)cc1 = 65
• Nc1[nH]ncc1-c1cccc(Br)c1 = 50
• CC1(C)Cc2cccc(CO)c2O1 = 99
• O=C(O)c1ccccc1-n1cccc1 = 72
• COc1ccc2ccc(O)cc2c1 = 66
• Nc1n[nH]c(-c2ccccc2)c1Br = 53
• CC(=O)Nc1cc(C)ccc1O = 79
• Cc1ccc(-c2nc(C(=O)O)cs2)cc1 = 88

---

Tested on: Mycobacterium tuberculosis
Test: Inhibition of Mycobacterium tuberculosis IMPDH deltaCBS mutant assessed as reduction in NADH production using IMP as substrate at 100 uM preincubated for 5 mins followed by substrate addition measured for 32 mins in presence of NAD+
READOUT_KIND: inhibition (%)

* O=C(CSc1nc(-c2ccc(Br)cc2)c[nH]1)Nc1ccc2occc2c1 | 31
* O=C(NCc1ncc(-c2ccc(Br)cc2)[nH]1)Nc1ccc(-c2c[nH]cn2)cc1 | 56
* O=C(CSc1nc(-c2ccc(Br)cc2)c[nH]1)Nc1ccccc1 | 13
* O=C(CSc1nc(-c2ccccc2)c[nH]1)Nc1ccc(-c2c[nH]cn2)cc1 | 24
* O=C(CSc1nc(-c2ccc(Br)cc2)c[nH]1)Nc1ccc(-c2c[nH]cn2)cc1 | 20
* O=C(CSc1nc(-c2ccc(Br)cc2)c[nH]1)Nc1ccc(I)cc1 | 30
* O=C(CSc1nc(-c2ccccc2)c[nH]1)Nc1ccc2occc2c1 | 36
* O=C(CSc1nc(-c2ccccc2)c[nH]1)Nc1ccc(I)cc1 | 46
